Data provenance is patent US20240270821A1.

- systemName: T1, human GIP receptor (human) (UniProt P48546)
- T1 sequence (looked up): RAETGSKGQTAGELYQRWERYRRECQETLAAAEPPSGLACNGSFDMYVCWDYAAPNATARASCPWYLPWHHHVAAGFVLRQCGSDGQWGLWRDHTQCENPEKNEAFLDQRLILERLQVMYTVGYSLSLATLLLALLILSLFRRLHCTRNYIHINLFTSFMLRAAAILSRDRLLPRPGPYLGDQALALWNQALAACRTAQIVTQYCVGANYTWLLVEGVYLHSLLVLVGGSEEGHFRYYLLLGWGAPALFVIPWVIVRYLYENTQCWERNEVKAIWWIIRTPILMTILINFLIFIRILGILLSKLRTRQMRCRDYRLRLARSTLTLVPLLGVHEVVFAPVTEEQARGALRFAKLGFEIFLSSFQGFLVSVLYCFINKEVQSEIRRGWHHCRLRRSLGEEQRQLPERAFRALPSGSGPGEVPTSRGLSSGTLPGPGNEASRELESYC
- methodNotes: cell-based or functional assay
Non-standard residues stand in square brackets, D forms with d. No end group written: not given here. Phe(4-CN) = N#Cc1ccc(C[C@H](N)C(=O)O)cc1; αMePhe(2-F) = C[C@](N)(Cc1ccccc1F)C(=O)O; Aib = CC(C)(N)C(=O)O
Note to self: values exactly at 0.2 nM are MET. So Relative cAMP EC50 at or above 0.2 nM is MET, below is NOT MET.

{"binder": "YXQGTXTSDXSIXLDKKAQXXFIEYLEEGGPSSGEPPPSGSEE (non-natural residues; C18 diacid-(γ-Glu)2 acyl on Lys; C-terminal amide; synthetic construct; SITE 2: note = 2-Aminoisobutyric Acid; SITE 6: note = alpha-methyl-2-fluoro-L-phenylalanine; SITE 10: note = 3-(4-Pyridyl)-L-alanine; SITE 13: note = alpha-methyl-leucine; SITE 17: note = Lysine is chemically modified through conjugation of the epsilon-amino group of the Lysine) [Example 635]", "categoryLabel": "NOT MET"}
{"binder": "YXQGTFTSDFSXXLDKKAQXAFIEWLLEGGHSSGAPPPGGE (synthetic construct; SITE 2: note = 2-Aminoisobutyric Acid; SITE 12: note = L-ornithine; SITE 13: note = alpha-methyl-leucine; SITE 17: note = Lysine is chemically modified through conjugation of the epsilon-amino group of the Lysine side chain with (2-[2-(2-Amino-ethoxy)-ethoxy]-acetyl)2-(gamma-Glu)) [Example 271]", "categoryLabel": "NOT MET"}
{"binder": "YXQGTXTSDYXIXLDXKAQXXFIEXLEEGGPSSGEPPPE (synthetic construct; SITE 2: note = 2-Aminoisobutyric Acid; SITE 6: note = alpha-methyl-2-fluoro-L-phenylalanine; SITE 11: note = alpha-methyl-L-serine; SITE 13: note = alpha-methyl-leucine; SITE 16: note = L-ornithine; SITE 17: note = Lysine is chemically modified through conjugation of the epsilon) [Example 402]", "categoryLabel": "NOT MET"}
{"binder": "Y[Aib]QGT[αMePhe(2-F)]TSD[Phe(4-CN)]SILLDKQAQKAFIQYLLEGGPSSGEPPPSEG-NH2 (not fully specified (residue 20)) [Example 341]", "categoryLabel": "MET"}
{"binder": "YXQGTFTSDXSRXLDKKAQXAFIEYLLEXGESSGAPPPSGS (synthetic construct; SITE 2: note = 2-Aminoisobutyric Acid; SITE 10: note = 3-(4-Pyridyl)-L-alanine; SITE 13: note = alpha-methyl-leucine; SITE 17: note = Lysine is chemically modified through conjugation of the epsilon-amino group of the Lysine side chain with (2-[2-(2-Amino-ethoxy)-ethoxy]-acetyl)) [Example 132]", "categoryLabel": "MET"}
{"binder": "YXQGTFTSDFSKXLDKKAQXAFIEYLLAGAPSSGAPPPSEG (Aib, αMeL; acylated lysine; C-terminal amide; synthetic construct; SITE 2: note = 2-Aminoisobutyric Acid; SITE 13: note = alpha-methyl-leucine; SITE 17: note = Lysine is chemically modified through conjugation of the epsilon-amino group of the Lysine side chain with (2-[2-(2-Amino-ethoxy)-ethoxy]-acetyl)-(gamma-Glu)-CO-(CH2) 18-CO2H; SITE 20: n) [Example 24]", "categoryLabel": "MET"}
{"binder": "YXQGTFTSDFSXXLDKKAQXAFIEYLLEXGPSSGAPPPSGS (synthetic construct; SITE 2: note = 2-Aminoisobutyric Acid; SITE 12: note = L-ornithine; SITE 13: note = alpha-methyl-leucine; SITE 17: note = Lysine is chemically modified through conjugation of the epsilon-amino group of the Lysine side chain with (2-[2-(2-Amino-ethoxy)-ethoxy]-acetyl)2-(gamma-Glu)) [Example 75]", "categoryLabel": "NOT MET"}
